TESTED_TARGET: renin (Homo sapiens)
Sequence (P00797 67-406, species assumed): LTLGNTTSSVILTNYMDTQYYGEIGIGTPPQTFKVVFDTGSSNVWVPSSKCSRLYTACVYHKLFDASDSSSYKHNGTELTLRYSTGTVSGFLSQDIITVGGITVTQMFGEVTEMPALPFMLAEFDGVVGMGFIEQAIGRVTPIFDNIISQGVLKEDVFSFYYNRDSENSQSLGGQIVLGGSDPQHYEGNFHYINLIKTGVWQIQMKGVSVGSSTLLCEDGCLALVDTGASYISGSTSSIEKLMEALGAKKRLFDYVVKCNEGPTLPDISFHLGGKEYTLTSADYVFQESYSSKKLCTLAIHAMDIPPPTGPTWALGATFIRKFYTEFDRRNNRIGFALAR
ASSAY_READOUT: IC50 (nM)
Could you give me the number in nM? Just the number is fine.

The examples below pair each entry with its known result.
>  <COMPOUND>
CC(C)CC(=O)NC(Sc1ccccc1)C(=O)N[C@@H](Cc1c[nH]cn1)C(=O)N[C@@H](CC1CCCCC1)[C@@H](O)[C@@H](O)CC(C)C (stereo partly drawn) [IVA-NHCH(SPh)CO--HIS--CAD, IVA-NHCH(SPh)CO-HIS-CAD]

>  <VALUE_UNITS>
nM

>  <REPORTED>
1.5

$$$$
>  <COMPOUND>
CC[C@H](C)CNC(=O)C[C@H](O)[C@H](CC(C)C)NC(=O)[C@H](CC(C)C)NC(=O)C(NC(=O)CC(C)C)Sc1ccccc1 (single isomer, unassigned) [IVA-NHCH(SPh)CO--LEU--STA--MBA (Isomer A), IVA-NHCH(SPh)-CO-LEU-STA-MBA]

>  <VALUE_UNITS>
nM

>  <REPORTED>
140

$$$$

# get_value(readout= IC50, system= renin (Homo sapiens)) for CC[C@H](C)CNC(=O)C[C@H](O)[C@H](CC(C)C)NC(=O)[C@H](CC(C)C)NC(=O)C(NC(=O)CC(C)C)Sc1ccccc1 (single isomer, unassigned) [IVA-NHCH(SPh)CO--LEU--STA--MBA (Mixture of diastereomers), IVA-NHCH(SPh)-CO-LEU-STA-MBA] 190
